System: PPARg homodimer (NR concentration 180 nM)
Assay: PBM binding z-score (relative to random genomic background probes); higher = stronger binding; sequences stand for … in GC…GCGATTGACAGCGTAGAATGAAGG
MEASURED PARAMETER: PBM binding z-score

                        input_sequence  assay_value
 0  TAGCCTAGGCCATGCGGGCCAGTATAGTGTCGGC        -1.26
 1  TGAATGAGGTTACAGATCAGGGAACGTGGCGTCG        0.777
 2  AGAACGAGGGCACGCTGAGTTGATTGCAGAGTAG        0.222
 3  CAAACTAGGTCACCGGAAGATCAAAGTCCGCATG         6.16
 4  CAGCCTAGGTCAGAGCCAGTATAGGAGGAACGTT        0.951
 5  GGAACGAGGACAAAGTTGATAGCATCTGTCGACG      -0.0718
 6  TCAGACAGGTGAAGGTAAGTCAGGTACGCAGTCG         1.02
 7  CCTGCTTGGTCAATGGTCAGCTAAAGCAGCTCGC        0.138
 8  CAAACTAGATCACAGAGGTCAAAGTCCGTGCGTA         4.38
 9  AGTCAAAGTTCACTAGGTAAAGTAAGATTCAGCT         2.43
10  GCTCGGAGGACAAGGTAAGAGCTTTGTCCGTAGA        -1.16
11  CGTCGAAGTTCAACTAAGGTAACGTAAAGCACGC         1.47
12  ACAGGCAGGTGAGTGAAGGTAACTCAGCTGGACG       -0.302
13  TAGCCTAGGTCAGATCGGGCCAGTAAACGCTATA       -0.374
14  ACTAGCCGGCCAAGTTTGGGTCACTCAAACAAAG        0.449
15  TAACCTAGGTCATGGGCCAGTATACCACGCGAAC         2.68
16  CGAACTAGGTCAGAACAGGACAGTGACGGATGAT        0.929
17  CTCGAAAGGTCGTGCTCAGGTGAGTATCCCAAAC         1.25

====

System: PPARg:RXRa DBDmut IVT, anti-RXR (DBD mutation: RXRa K156A/R161A, NR concentration 270 nM, RXRa partner concentration 90 nM)
Test: PBM binding z-score (relative to random genomic background probes); higher = stronger binding; sequences stand for … in GC…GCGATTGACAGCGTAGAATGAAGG
Record Satisfied whenever PBM binding z-score is at 1 or higher; record Not satisfied when lower.

In [3]: df
Out[3]:
                        input_sequence   answer_label
 0  GCAGACAGGGGAAACGCAGGTAACTCAGGGTGGC  Not satisfied
 1  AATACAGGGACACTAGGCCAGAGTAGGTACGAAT  Not satisfied
 2  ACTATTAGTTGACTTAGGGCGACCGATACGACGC  Not satisfied
 3  CGTAAAAGTTCAAGGTAACGTAACAGAAAGCAGC  Not satisfied
 4  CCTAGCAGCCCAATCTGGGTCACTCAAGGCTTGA      Satisfied
 5  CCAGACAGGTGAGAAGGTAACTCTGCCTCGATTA      Satisfied
 6  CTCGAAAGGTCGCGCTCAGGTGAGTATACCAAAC      Satisfied
 7  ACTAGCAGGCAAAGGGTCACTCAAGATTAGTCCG  Not satisfied
 8  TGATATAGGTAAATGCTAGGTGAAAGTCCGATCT      Satisfied
 9  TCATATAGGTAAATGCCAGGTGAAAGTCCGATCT      Satisfied
10  GCTGCTAGCTCAGGTTGGTCAGCTAACGGGTACG  Not satisfied
11  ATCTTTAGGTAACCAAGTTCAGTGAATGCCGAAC      Satisfied
12  CCGAATGGGGCATAAGGTTACCATAAGCCAGCCC  Not satisfied
13  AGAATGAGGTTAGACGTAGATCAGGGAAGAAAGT      Satisfied
14  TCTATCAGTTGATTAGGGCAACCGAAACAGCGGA      Satisfied
15  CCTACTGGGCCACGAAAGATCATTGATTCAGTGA      Satisfied
16  CCTAGTTAGTCAAGGTCACACACGCTATAGGTAC      Satisfied
17  CAAACTTGGTCAAAGGTCAAAGTCGAGCCAACCA      Satisfied
18  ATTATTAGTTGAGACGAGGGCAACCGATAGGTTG  Not satisfied
19  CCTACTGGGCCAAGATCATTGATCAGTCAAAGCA      Satisfied
20  CGTCCAATGTCATAGGAGGTCAGTGAAGACAGAT  Not satisfied
21  GCTTACGGGACAAAGGTTATAGCATGAATAGAAT      Satisfied
22  CCTATTAGTTGACGATAAGGGCAACCGAAGCTCG  Not satisfied
23  TAGCCCAGGTCATTGGGCCAGTATAGTACGCATC      Satisfied
24  TCTTGTAGATCAAGCAGGTTACGAAAGCCTGAGT      Satisfied
25  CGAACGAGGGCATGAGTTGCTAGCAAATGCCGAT      Satisfied
26  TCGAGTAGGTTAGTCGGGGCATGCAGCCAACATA      Satisfied
27  CTCGAAAGGTAGTGCTCAGGTGAGTATACCAAAC  Not satisfied
28  GCTCTTAGTTGAAAGGGCAACCGAATGATTCTCG  Not satisfied
29  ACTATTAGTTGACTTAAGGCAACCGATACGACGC  Not satisfied
30  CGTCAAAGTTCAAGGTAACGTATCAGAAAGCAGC      Satisfied
31  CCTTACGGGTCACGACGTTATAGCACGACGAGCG      Satisfied
32  TCATGTAGATCAAAGGTTAAGAAAGCCGAAGCCT      Satisfied
33  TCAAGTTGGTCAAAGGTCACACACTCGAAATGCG      Satisfied
34  CCTACTGGGCCATCAGGTTATTGATATCAACGTT      Satisfied
35  TCATATAGGTAAAGGTGAAAGACGAACGATATGA      Satisfied
36  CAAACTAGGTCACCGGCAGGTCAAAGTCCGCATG      Satisfied
37  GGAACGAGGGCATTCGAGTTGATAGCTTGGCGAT      Satisfied
38  ACTAGTTGGTCAGATGAGGTCACACACAATTCGG      Satisfied
39  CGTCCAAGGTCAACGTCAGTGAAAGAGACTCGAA      Satisfied
40  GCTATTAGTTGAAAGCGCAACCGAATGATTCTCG  Not satisfied
41  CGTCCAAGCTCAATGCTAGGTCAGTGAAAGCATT  Not satisfied
42  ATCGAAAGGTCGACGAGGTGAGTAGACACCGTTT  Not satisfied
43  CTCGAAAGGTCGTGCTCGGGTGAGTATACCAAAC  Not satisfied
44  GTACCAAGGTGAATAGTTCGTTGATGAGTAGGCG      Satisfied
45  TCTATTAGTTGATTAGGGCAACCCAAACAGCGGA      Satisfied
46  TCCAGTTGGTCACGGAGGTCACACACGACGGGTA      Satisfied
47  GCTGCTAGGTCAGGTTGGTCAGTTAACGGGTACG      Satisfied

The origin of these recorded values is the supplement of paper PMC6555819.
